Each recorded value in this set is attributed to patent US20250034136A1.

Known IC50 of a selection of molecules
- assay.system: WRN (BV08), human Werner helicase (Uniprot Q14191, amino acids 517-1235 with L1074F point mutation) (Homo sapiens (Human), UniProt Q14191, L1074F)
- Sequence (Q14191 other isoform, or with tags, fused parts or gaps L1074F (already in the parent)): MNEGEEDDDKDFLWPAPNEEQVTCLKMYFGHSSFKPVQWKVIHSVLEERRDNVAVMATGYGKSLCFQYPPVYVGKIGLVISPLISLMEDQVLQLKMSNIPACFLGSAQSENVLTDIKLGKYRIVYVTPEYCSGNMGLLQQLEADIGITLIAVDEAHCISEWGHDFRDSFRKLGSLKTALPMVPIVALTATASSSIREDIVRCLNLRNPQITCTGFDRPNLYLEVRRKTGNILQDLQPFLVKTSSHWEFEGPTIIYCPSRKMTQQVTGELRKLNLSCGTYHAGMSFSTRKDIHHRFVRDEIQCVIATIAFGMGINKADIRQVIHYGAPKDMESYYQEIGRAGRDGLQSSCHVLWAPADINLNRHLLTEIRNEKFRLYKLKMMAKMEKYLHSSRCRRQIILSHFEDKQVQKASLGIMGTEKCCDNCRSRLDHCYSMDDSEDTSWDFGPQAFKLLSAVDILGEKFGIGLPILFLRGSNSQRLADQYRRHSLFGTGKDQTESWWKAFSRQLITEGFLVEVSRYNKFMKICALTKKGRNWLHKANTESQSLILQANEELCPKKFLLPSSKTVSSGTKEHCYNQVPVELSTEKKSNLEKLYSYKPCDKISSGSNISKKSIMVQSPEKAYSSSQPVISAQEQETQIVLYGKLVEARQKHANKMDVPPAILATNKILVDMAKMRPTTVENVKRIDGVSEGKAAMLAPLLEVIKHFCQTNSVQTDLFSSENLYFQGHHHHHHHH
- assay.overview: WRN (BV08) ADP-Glo assay
- conditions: class symbols A-E, read-out: ADP-Glo_hWRN_IC50
assay.endpoint: IC50

[
  {
    "molecule": "CCc1c(N2CCN(C(=O)c3ncnc(C)c3O)[C@H]3CC[C@@H]32)c(=O)c2nc(N3CCCC3=O)cnc2n1CC(=O)Nc1ccc(C(F)(F)F)cc1Cl",
    "assay.endpoint": "IC50",
    "result": "5 to 50 nM"
  },
  {
    "molecule": "CCc1c(N2CCN(C(=O)c3ncnc(C)c3O)[C@@H]3CC[C@H]32)c(=O)c2nc(NC)cnc2n1CC(=O)Nc1ccc(C(F)(F)F)cc1Cl (single isomer, unassigned)",
    "assay.endpoint": "IC50",
    "result": "≤ 5 nM"
  },
  {
    "molecule": "CCc1c(N2CCN(C(=O)c3ncnc(C)c3O)CC2)c(=O)c2nc(C=C3CCCC3)cnc2n1CC(=O)Nc1ccc(C(F)(F)F)cc1Cl",
    "assay.endpoint": "IC50",
    "result": "≤ 5 nM"
  },
  {
    "molecule": "CCc1c(N2CCN(C(=O)c3ncnc(C)c3O)CC2)c(=O)c2nc(NCC3CC3)cnc2n1CC(=O)Nc1ccc(C(F)(F)F)cc1Cl",
    "assay.endpoint": "IC50",
    "result": "5 to 50 nM"
  },
  {
    "molecule": "C/C=C/c1cnc2c(n1)c(=O)c(N1CCN(C(=O)c3ncnc(C)c3O)CC1)c(CC)n2CC(=O)Nc1ccc(C(F)(F)F)cc1Cl",
    "assay.endpoint": "IC50",
    "result": "5 to 50 nM"
  },
  {
    "molecule": "CCc1c(N2CCN(C(=O)c3ncnc(C)c3O)[C@H]3CC(F)(F)C[C@@H]32)c(=O)c2nc(N(C)C)cnc2n1CC(=O)Nc1ccc(C(F)(F)F)cc1Cl (single isomer, unassigned) [I-296]",
    "assay.endpoint": "IC50",
    "result": "5 to 50 nM"
  }
]

* * *

EC50 values, listed per item
- System: p21 induction in HCT116 cells
- assay.overview: p21 induction in HCT116 cells
- Assay type: cell-based
- conditions: Homo sapiens, HCT-116, 24 h, HCT116 cells, 24 h compound incubation; read-out: P21_EC50

[
  {
    "compound": "CCc1c(N2CCN(C(=O)c3ncnc(C)c3O)C[C@H]2C)c(=O)c2nc(N(C)C)cnc2n1CC(=O)Nc1ccc(C(F)(F)F)cc1Cl [I-99]",
    "assay.system": "p21 induction in HCT116 cells",
    "EC50": "> 5000 nM"
  },
  {
    "compound": "CCc1c(N2CCN(C(=O)c3ncnc(C)c3O)[C@H]3CC[C@@H]32)c(=O)c2nc(N(C)C3CCC(O)C3)cnc2n1CC(=O)Nc1ccc(C(F)(F)F)cc1Cl (some centres unmarked) [I-288]",
    "assay.system": "p21 induction in HCT116 cells",
    "EC50": "< 500 nM"
  },
  {
    "compound": "CCc1c(N2CCN(C(=O)c3ncnc(C)c3O)CC2)c(=O)c2nc(OC(F)F)cnc2n1CC(=O)Nc1ccc(C(F)(F)F)cc1Cl [I-26]",
    "assay.system": "p21 induction in HCT116 cells",
    "EC50": "> 5000 nM"
  },
  {
    "compound": "CCc1c(N2CCN(C(=O)c3ncnc(C)c3O)[C@@H]3CC(F)(F)C[C@H]32)c(=O)c2nc(N(C)C)cnc2n1CC(=O)Nc1ccc(C(F)(F)F)cc1Cl (single isomer, unassigned) [I-297]",
    "assay.system": "p21 induction in HCT116 cells",
    "EC50": "> 5000 nM"
  },
  {
    "compound": "CCc1c(N2CCN(C(=O)c3ncnc(C)c3O)[C@H]3CC[C@@H]32)c(=O)c2nc(-c3ccnn3C)cnc2n1CC(=O)Nc1ccc(C(F)(F)F)cc1Cl [I-241]",
    "assay.system": "p21 induction in HCT116 cells",
    "EC50": "< 500 nM"
  },
  {
    "compound": "CCc1c(N2CCN(C(=O)c3cc(C)cnc3OC)[C@H]3CC[C@@H]32)c(=O)c2nc(N(C)C)cnc2n1CC(=O)Nc1ccc(C(F)(F)F)cc1Cl [I-259]",
    "assay.system": "p21 induction in HCT116 cells",
    "EC50": "500 to 2000 nM"
  },
  {
    "compound": "CCc1c(N2CCN(C(=O)c3ncnc(C)c3O)CC2)c(=O)c2nc(N3CCC34COC4)cnc2n1CC(=O)Nc1ccc(C(F)(F)F)cc1Cl [I-207]",
    "assay.system": "p21 induction in HCT116 cells",
    "EC50": "2000 to 5000 nM"
  },
  {
    "compound": "CCc1c(N2CCN(C(=O)c3ncnc(C)c3O)CC2)c(=O)c2nc(N(C)[C@H]3CC[C@@H]3OC)cnc2n1CC(=O)Nc1ccc(C(F)(F)F)cc1Cl (racemic) [I-143]",
    "assay.system": "p21 induction in HCT116 cells",
    "EC50": "2000 to 5000 nM"
  },
  {
    "compound": "CCc1c(N2CCN(C(=O)c3ncnc(C)c3O)CC2)c(=O)c2nc(N(C)C(C)=O)cnc2n1CC(=O)Nc1ccc(C(F)(F)F)cc1Cl [I-30]",
    "assay.system": "p21 induction in HCT116 cells",
    "EC50": "> 5000 nM"
  },
  {
    "compound": "CCc1c(N2CCN(C(=O)c3ncnc(C)c3O)CC2)c(=O)c2nc(OC3COC3)cnc2n1CC(=O)Nc1ccc(C(F)(F)F)cc1Cl [I-140]",
    "assay.system": "p21 induction in HCT116 cells",
    "EC50": "> 5000 nM"
  },
  {
    "compound": "CCc1c(N2CCN(C(=O)c3ncnc(C)c3O)CC2)c(=O)c2nc(C3=CCOC3)cnc2n1CC(=O)Nc1ccc(C(F)(F)F)cc1Cl [I-90]",
    "assay.system": "p21 induction in HCT116 cells",
    "EC50": "> 5000 nM"
  },
  {
    "compound": "CCc1c(N2CCN(C(=O)c3ncnc(C)c3O)CC2)c(=O)c2nc(-c3ccnc(OC)c3)cnc2n1CC(=O)Nc1ccc(C(F)(F)F)cc1Cl [I-7]",
    "assay.system": "p21 induction in HCT116 cells",
    "EC50": "> 5000 nM"
  },
  {
    "compound": "CCc1c(N2CCN(C(=O)c3ncnc(C)c3O)[C@H]3CC[C@@H]32)c(=O)c2nc(N(C)[C@H]3CC[C@H](O)C3)cnc2n1CC(=O)Nc1ccc(C(F)(F)F)cc1Cl [I-299]",
    "assay.system": "p21 induction in HCT116 cells",
    "EC50": "< 500 nM"
  },
  {
    "compound": "CCO/C=C/c1cnc2c(n1)c(=O)c(N1CCN(C(=O)c3ncnc(C)c3O)[C@H]3CC[C@@H]31)c(CC)n2CC(=O)Nc1ccc(C(F)(F)F)cc1Cl (racemic) [I-136]",
    "assay.system": "p21 induction in HCT116 cells",
    "EC50": "< 500 nM"
  },
  {
    "compound": "CCc1c(N2CCN(C(=O)c3ncnc(C)c3O)[C@H]3CCC[C@@H]32)c(=O)c2nc3cc(C)oc3nc2n1CC(=O)Nc1ccc(C(F)(F)F)cc1Cl [I-123]",
    "assay.system": "p21 induction in HCT116 cells",
    "EC50": "< 500 nM"
  },
  {
    "compound": "CCc1c(N2CCN(C(=O)c3c(OC)ncc(C)c3O)[C@H]3CC[C@@H]32)c(=O)c2nc(N(C)C)cnc2n1CC(=O)Nc1ccc(C(F)(F)F)cc1Cl [I-261]",
    "assay.system": "p21 induction in HCT116 cells",
    "EC50": "< 500 nM"
  },
  {
    "compound": "CCc1c(N2CCN(C(=O)c3ncnc(C)c3O)[C@@H](C)[C@H]2C)c(=O)c2nc(N(C)C)cnc2n1CC(=O)Nc1ccc(C(F)(F)F)cc1Cl (single isomer, unassigned) [I-196]",
    "assay.system": "p21 induction in HCT116 cells",
    "EC50": "500 to 2000 nM"
  },
  {
    "compound": "CCc1c(N2CCN(C(=O)c3ncnc(C)c3O)[C@H]3CC[C@@H]32)c(=O)c2nc(N(C)C3CCC3O)cnc2n1CC(=O)Nc1ccc(C(F)(F)F)cc1Cl (some centres unmarked) [I-293]",
    "assay.system": "p21 induction in HCT116 cells",
    "EC50": "< 500 nM"
  },
  {
    "compound": "CCc1c(N2CCN(C(=O)c3ncnc(C)c3O)[C@H]3CC[C@@H]32)c(=O)c2nc(C3CC3)cnc2n1CC(=O)Nc1ccc(C(F)(F)F)cc1Cl [I-100]",
    "assay.system": "p21 induction in HCT116 cells",
    "EC50": "< 500 nM"
  },
  {
    "compound": "CCc1c(N2CCN(C(=O)c3c(O)ccnc3OC)CC2)c(=O)c2nc(N(C)C)cnc2n1CC(=O)Nc1ccc(C(F)(F)F)cc1Cl [I-51]",
    "assay.system": "p21 induction in HCT116 cells",
    "EC50": "< 500 nM"
  },
  {
    "compound": "CCc1c(N2CCN(C(=O)c3ncnc(C)c3O)CC2)c(=O)c2nc(N(C)[C@H]3C[C@H](OC)C3)cnc2n1CC(=O)Nc1ccc(C(F)(F)F)cc1Cl [I-92]",
    "assay.system": "p21 induction in HCT116 cells",
    "EC50": "500 to 2000 nM"
  },
  {
    "compound": "CCc1c(N2CCN(C(=O)c3ncnc(C)c3O)[C@H]3CC[C@@H]32)c(=O)c2nc(N(C)[C@H]3C[C@H](OC)C3)cnc2n1CC(=O)Nc1ccc(C(F)(F)F)cc1Cl [I-267]",
    "assay.system": "p21 induction in HCT116 cells",
    "EC50": "< 500 nM"
  },
  {
    "compound": "CCc1c(N2CCN(C(=O)c3ncc4c(c3O)OCC4)CC2)c(=O)c2nc(N(C)C3CC3)cnc2n1CC(=O)Nc1ccc(C(F)(F)F)cc1Cl [I-203]",
    "assay.system": "p21 induction in HCT116 cells",
    "EC50": "500 to 2000 nM"
  }
]
